# targetEntity: GRIP2_4, Q9C0E4
# Sequence (Q9C0E4 446-548): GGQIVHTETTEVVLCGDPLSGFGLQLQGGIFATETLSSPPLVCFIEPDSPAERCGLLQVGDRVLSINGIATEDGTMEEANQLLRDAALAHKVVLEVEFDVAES
# assayProcedure: holdup assay
# Parameters: key: below the threshold = too weak to quantify, mostly under pKd 3.1 to 4
# experimentalConditions: plain residues with an end cap or a label only (N-terminal biotin on a linker: ttds)
measuredParameter: pKd

Use these answered entries as a reference point.
QRQARSETLV [HPV59-E6, Q81964] :: below the threshold
SGSRPSATVV [HPV73-E6, Q82005] :: 3.55
PVRVCEETSL [OTULIN, Q96BN8] :: 3.53
PRVKPQRSKV [PPP1R13L, Q8WUF5] :: below the threshold
NDPAWDETNL [ARHGEF7, Q14155;Q14155-1] :: below the threshold
RPLPRKVSQL [DOCK4, Q8N1I0] :: below the threshold

Next item in the queue.
*Q* Can you share its pKd? I mean this binder: DKDPHSETAL [TMIGD1, Q6UXZ0]
*A* below the threshold
